Assay Notes: Quantitative High-Throughput drug screen in 47 multiple myeloma cell lines against the NCATS MIPE library collection: EJM_DSMZ cell viability assay (AID 1918926; further: nearly all actives have a fitted effect of over 30% in size)
Measurement Conditions: EJM myeloma cell viability, CellTiter-Glo ATP, 48 h; series mostly up to 45.8 µM
Results filed as inconclusive are left out. Calls of active or inactive are those of the source. The call rests on the fitted dose curve; in most records, active means well fitted cell-killing curve with a large enough effect; inconclusive means small, poorly fitted or top-dose-only effect, or effect the other way; inactive means no such curve, though single readings can be large or run the other way.
Assign a class; possible classes are active, inactive

{"columns": ["Compound", "Qualitative Label"],
 "data": [
  ["O=C(C=Cc1cccc(S(=O)(=O)Nc2ccccc2)c1)NO", "active"],
  ["CN(C)Cc1c(C(=O)NCCOc2ccc(C(=O)NO)cc2)oc2ccccc12", "active"],
  ["COC(=O)C1=C(C)NC(C)=C(C(=O)OCCN2CCN(C(c3ccccc3)c3ccccc3)CC2)C1c1cccc([N+](=O)[O-])c1 (stereo not given)", "inactive"],
  ["Nc1nc(Nc2ccc(S(N)(=O)=O)cc2)nn1C(=O)c1c(F)cccc1F", "active"],
  ["CC1(C)OC2=C(C(=O)c3ccccc3C2=O)[C@H](NCc2ccccc2)[C@H]1O", "active"],
  ["NC(=O)Nc1cc(-c2cccc(F)c2)sc1C(=O)N[C@H]1CCCNC1", "active"]
]}

Attention now turns to another entry.
Input line: Could you check what this test reported for C[C@@H](Oc1cc(-n2cnc3ccc(CN4CCN(C)CC4)cc32)sc1C(N)=O)c1ccccc1C(F)(F)F ?
Output line: active

###

Assay Notes: qHTS of pediatric cancer cell lines to identify multiple opportunities for drug repurposing: Confirmatory screen for BT-37 cells (AID 1347117);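 further: viability measured after 48 h of compound exposure; nearly all actives have a fitted effect of over 55% in size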
Measurement Conditions: BT-37 pediatric cancer cells, viability; series mostly up to 45.9 µM
Inconclusive results are not listed. Active and inactive are the calls of the source. Calls follow the shape of the dose curve; as a rule, active = well fitted cell-killing curve with a large enough effect; inconclusive = small, poorly fitted or top-dose-only effect; inactive = no such curve, though single readings can be large or run the other way.
Hello, when you answer, please use one of the following outcomes: active, inactive

{"columns": ["Structure Notation", "Qualitative Label"],
 "data": [
  ["Cc1cc(Nc2cc(NC(=O)c3c(Cl)cccc3Cl)ccn2)nc(N)n1", "active"],
  ["COc1cc2c(NC3CCN(C(C)C)CC3)nc(C3CCCCC3)nc2cc1OCCCN1CCCC1", "active"],
  ["CC(=O)OCC(=O)[C@@]1(O)[C@H](C)C[C@H]2[C@@H]3C=C(C)C4=Cc5c(cnn5-c5ccccc5)C[C@]4(C)[C@@H]3[C@@H](O)C[C@@]21C", "active"]
]}

Okay, now this molecule:
Input line: Would you mind telling me which call this test gave COC(=O)Nc1ccc(-c2nc(N3CCOCC3)c3cnn(C4CCN(Cc5cccnc5)CC4)c3n2)cc1 ?
Output line: active

###

Catalogue of parasite growth, % of control (lower = inhibition) values
Assay Notes: qHTS profiling of the MIPE4 collection as inhibitors of Plasmodium falciparum (DD2) proliferation (Rep 2) (AID 743346)
Measurement Conditions: P. falciparum Dd2 in erythrocytes, SYBR Green DNA, 72 h; at 28.5 µM (top of the series) unless noted
The response must be a number in % [at 57.5 µM] with no trailing unit.

{"columns": ["Structure Notation", "Obs Value"],
 "data": [
  ["Cc1cc(Nc2cc(N3CCN(C)CC3)nc(C=Cc3ccccc3)n2)n[nH]1", 8.07]
]}

Below: the item to evaluate.
Input line: Look at this compound and give its reported parasite growth, % of control (lower = inhibition). O=C(O)[C@H](Cc1c[nH]c2ccccc12)N1C(=O)c2ccccc2C1=O
Output line: 77

Taken from PubChem BioAssay (NCATS).
